# target_of_assay: CYP2D6 (Homo sapiens, UniProt P10635)
# Sequence (P10635 whole entry): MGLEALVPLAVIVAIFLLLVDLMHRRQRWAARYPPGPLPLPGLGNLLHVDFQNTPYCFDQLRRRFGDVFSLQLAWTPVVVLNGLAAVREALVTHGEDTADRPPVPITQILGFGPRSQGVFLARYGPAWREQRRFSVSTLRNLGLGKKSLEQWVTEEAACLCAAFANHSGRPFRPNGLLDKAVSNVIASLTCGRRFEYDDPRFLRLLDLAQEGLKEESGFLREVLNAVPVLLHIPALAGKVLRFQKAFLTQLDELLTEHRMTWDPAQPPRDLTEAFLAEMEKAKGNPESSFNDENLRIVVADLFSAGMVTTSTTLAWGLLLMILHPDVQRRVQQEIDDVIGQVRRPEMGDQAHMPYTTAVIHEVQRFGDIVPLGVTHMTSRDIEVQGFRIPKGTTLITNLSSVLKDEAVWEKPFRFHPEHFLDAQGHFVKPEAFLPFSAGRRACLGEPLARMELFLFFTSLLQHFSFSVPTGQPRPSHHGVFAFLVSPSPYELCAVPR
# protocol_details: CYP inhibition
# Assay type: in vitro ADME
# reported_conditions: read-out: CYP inhibition IC50, CYP2D6
# Procedure: The In vitro ADME/T assays were conducted at WuXi AppTec Co. Ltd.(Shanghai). ClogP was calculated with ChemDraw Ultra 14.0. […]
pIC50: −log10 of the molar value.
experimental_endpoint: pIC50

Can you share its pIC50? I mean this compound: C[C@H]1COC2(CCN(c3nc(=O)c4cc(C(F)(F)F)cc([N+](=O)[O-])c4s3)CC2)O1 [BTZ043]
< 5.00

----------
# protocol_details: pharmacokinetic study in SD rats
# Type: in vivo
# reported_conditions: female, SD, rat, in vivo, po, 5 mg/kg
experimental_endpoint: AUC

Can you share its AUC? I mean this molecule: C[C@H]1COC2(CCN(c3nc(=O)c4cc(C(F)(F)F)cc([N+](=O)[O-])c4s3)CC2)O1
899 ng·h/mL

----------
# protocol_details: pharmacokinetic study in SD rats
# Type: in vivo
# reported_conditions: female, rat, plasma, po; SD rats, 5 mg/kg, terminal half-life for elimination
The compounds listed here are annotated with their half-life.
Could you give me the number in h? Just the number is fine.

In [3]: df
Out[3]:
                            chemical_smiles  experimental_endpoint  unit_abbreviation  quantitative_readout
0  C[C@H]1COC2(CCN(c3nc(=O)c4cc(C(F)(F)F)cc([N+](=O)[O-])c4s3)CC2)O1              half-life                  h                  1.22

Next up:
Can you share its half-life? I mean this compound: O=[N+]([O-])c1cc(C(F)(F)F)cc2c(=S)nc(N3CCC4(CC3)OCCO4)sc12
1.45

----------
# target_of_assay: CYP3A4 (Homo sapiens)
# Sequence (P08684 whole entry): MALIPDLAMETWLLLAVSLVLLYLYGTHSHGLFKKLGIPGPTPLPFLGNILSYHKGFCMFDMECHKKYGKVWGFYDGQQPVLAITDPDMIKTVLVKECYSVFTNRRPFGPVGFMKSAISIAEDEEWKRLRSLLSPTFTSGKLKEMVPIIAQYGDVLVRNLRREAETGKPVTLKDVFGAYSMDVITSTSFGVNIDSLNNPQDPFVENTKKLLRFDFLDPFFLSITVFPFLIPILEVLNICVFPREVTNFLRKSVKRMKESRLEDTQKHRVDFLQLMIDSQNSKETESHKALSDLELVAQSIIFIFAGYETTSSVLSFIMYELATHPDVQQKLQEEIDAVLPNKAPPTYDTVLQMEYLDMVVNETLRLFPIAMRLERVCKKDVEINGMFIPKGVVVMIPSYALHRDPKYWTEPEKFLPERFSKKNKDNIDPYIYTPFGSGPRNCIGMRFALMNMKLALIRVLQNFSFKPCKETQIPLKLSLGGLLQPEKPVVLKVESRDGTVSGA
# protocol_details: CYP inhibition
# Assay type: in vitro ADME
# reported_conditions: read-out: CYP inhibition IC50, CYP3A4
experimental_endpoint: IC50

Can you share its IC50? I mean this molecule: C[C@H]1COC2(CCN(c3nc(=O)c4cc(C(F)(F)F)cc([N+](=O)[O-])c4s3)CC2)O1
> 10 µM

----------
# Tested on: MDR1
# protocol_details: bi-directional permeability across MDR1-MDCKII cell monolayer
# Type: in vitro ADME
# reported_conditions: dog, MDCK-MDR1; MDR1-MDCKII
# Description: The In vitro ADME/T assays were conducted at WuXi AppTec Co. Ltd.(Shanghai). ClogP was calculated with ChemDraw Ultra 14.0. […]
experimental_endpoint: Papp A→B
Give the figure together with its unit, number first.

What reported Papp A→B corresponds to O=[N+]([O-])c1cc(C(F)(F)F)cc2c(=S)nc(N3CCC4(CC3)OCCO4)sc12 on MDR1?
6.96 ×10⁻⁶ cm/s

----------
# protocol_details: pharmacokinetic study in SD rats
# Format: in vivo
# reported_conditions: female, rat, po; SD rats, p.o., 5 mg/kg, plasma; read-out: Cmax
experimental_endpoint: Cmax (ng/mL)
Could you give me the number in ng/mL? Just the number is fine.

Can you share its Cmax? I mean this compound: O=[N+]([O-])c1cc(C(F)(F)F)cc2c(=S)nc(N3CCC4(CC3)OCCO4)sc12
193

The measurements presented in this section are drawn from paper PMC4942819.
